# maps each entry to its SPOT peptide array binding signal intensity
- TARGET: ScMyo3
- MEASUREMENT_NOTES: SPOT peptide array binding signal intensity (averaged, normalized) (arbitrary units (background-subtracted, floor 0; scale differs between SH3 domains)); higher = stronger binding of the SH3 domain to the peptide
Number only, no unit.

Take a look at these entries with their results.
DTFLPPPPPPPSNFE | 2140
KDKSRPPRPPPKPLH | 29.5
GRLRPKRIAPWHLIQ | 1

Now for a further binder.
Name the recorded SPOT peptide array binding signal intensity for `NLPKRKPPKLQGPFS` .
63.2
